# Test system: SN12C renal
# ASSAY COMMENT: NCI tumour cell line growth inhibition, 48 h
// values below are reported GI50

// known answers, use as guide
| MOLECULE | GI50 |
| --- | --- |
| O=C(Nc1ccc(-n2cc(-c3ccncc3)c(-c3ccc(O)c(Cl)c3)n2)cc1)c1cc(Cl)cc(Cl)c1 | 2440 nM |
| CC(=O)Nc1nc(SCc2ccccc2)c2ncn(C(C)=O)c2n1 | > 100000 nM |
| O=C(Nc1ccc(-n2cc(-c3ccncc3)c(-c3ccc(Cl)c(O)c3)n2)cc1)Nc1cc(C(F)(F)F)cc(C(F)(F)F)c1 | 2030 nM |
| COc1ccc(C2=NN(C(=O)COc3ccc(Cl)cc3)C(O)(c3cc(F)c(Cl)cc3Cl)C2)cc1OC (centres undefined) | 3650 nM |
| Nc1ccc(C(=O)c2ccc(N)c(Br)c2)cc1Br | 903 nM |

Prompt: // GI50 lookup, key: Cc1cc(C)c(O)c(CNCCCCCCNCc2cc(C)cc(C)c2O)c1
Response: 1830 nM

Prompt: If you can, please state the reported GI50 value of CC(C)(C)C(=O)Nc1ccccc1I(=O)=O .
Response: > 100000 nM

Prompt: Param item = CC([C@H]1CCC2C3CCC4C[C@@H](NC=O)CC[C@]4(C)C3CC[C@@]21C)N(C)C (some centres undefined) ; retrieve measured GI50.
Response: 2880 nM

Prompt: // query GI50 value for entry CC1(C)OC[C@@H]([C@@]2(CO[Si](C)(C)C(C)(C)C)CC=CC(=O)O2)O1
Response: 19500 nM

---

Quick reference: GI50 of the listed items.
# System: TK-10 renal
# ASSAY COMMENT: NCI tumour cell line growth inhibition, 48 h

Here is how some compounds turned out for GI50.
| COMPOUND | GI50 |
| --- | --- |
| CC(=O)OCC1OC(OC2CC3C(C)(C)C(OC(C)=O)CC[C@]3(C)C3CCC45CC4(CC[C@H]5C(C)CC(O)[C@@H](O)C(C)(C)O)[C@]23C)C(O)C(O)C1O (stereo not given in full) | 13.6 µM |
| Cc1cc(C)c(O)c(CNCCCCCCNCc2cc(C)cc(C)c2O)c1 | 1.39 µM |
| C/C=C(\C)C(=O)N[C@H]1[C@@H](OC(C)=O)C[C@]2(C)C3CC[C@@]4(C)C(CC[C@@H]4C(C)N(C)C)C3CCC2[C@H]1O (stereo not given in full) | 8.32 µM |
| Nc1nc(Nc2ccc3c(c2)CC[C@@H](N2CCCC2)CC3)nn1-c1cc2c(nn1)-c1ccccc1CCC2 | 1.35 µM |

Could you now look at the following compound, please?
Prompt: Please give the measured GI50 for this compound: CC(=O)[CH-]C(=O)c1ccccc1.CC(=O)[CH-]C(=O)c1ccccc1.CC(=O)[CH-]C(=O)c1ccccc1.[Tl+3]
Response: > 59.2 µM

---

# Test system: NCI/ADR-RES ovarian
# ASSAY COMMENT: NCI tumour cell line growth inhibition, 48 h; in the data active = GI50 below about 0.43 µM; inactive = the rest
Bench note: report the call from 1 (yes) = active, 0 (no) = inactive

Worked examples follow.
| MOLECULE | CLASS LABEL |
| --- | --- |
| CCOC(=O)Cc1csc(/N=C2\NC(=O)/C(=C3\C(=O)N(C)c4ccccc43)S2)n1 | 0 (no) |
| CCCc1ccc(S(=O)(=O)N[C@H]2CC[C@H]3[C@@H]4CCc5cc(O)ccc5[C@H]4CC[C@]23C)cc1 | 0 (no) |
| COc1ccc(/C=C\c2cc(OC)c(OC)c(OC)c2)cc1OC(=O)C(N)CCC(=O)O (configuration not stated) | 1 (yes) |
| CC([C@H]1CCC2C3CCC4C[C@@H](NC=O)CC[C@]4(C)C3CC[C@@]21C)N(C)C (some centres not stated) | 0 (no) |
| COc1ccc2nc(-c3ccccc3)cc(Nc3ccc(C(C)=O)cc3)c2c1 | 0 (no) |

Prompt: I would be grateful if you could indicate the recorded call for Cc1cc(C)c(O)c(CNCCCCCCNCc2cc(C)cc(C)c2O)c1 .
Response: 0 (no)

Prompt: In this assay, the call recorded for O=C(NC1CC1)c1ccc(-c2nc3ccc4[nH]ncc4c3c3c2CCCC3)cc1 was what?
Response: 0 (no)
